Assay: xn = mol fraction of the nth substance listed
Details: 333.2 K; 101 kPa; Liquid; Taylor dispersion method; x1 = 0
readout-label: binary diffusion coefficient (m2/s)

The compound listed as NCCCCC(=O)O [5-aminovaleric acid] + O shows binary diffusion coefficient equal to 1.66e-09

The compound listed as NCCCCCC(=O)O [6-aminohexanoic acid] + O shows binary diffusion coefficient equal to 1.57e-09

The compound listed as NCCCC(=O)O [4-aminobutanoic acid] + O shows binary diffusion coefficient equal to 1.79e-09

The compound listed as NCCCCCCC(=O)O [7-aminoheptanoic acid] + O shows binary diffusion coefficient equal to 1.48e-09

The compound listed as NCCC(=O)O [3-aminopropanoic acid] + O shows binary diffusion coefficient equal to 1.97e-09
